Test system: Bacillus subtilis
Assay: Antimicrobial activity against Bacillus subtilis NCIM 2718 after 18 hrs by broth microdilution assay
Assay type: functional
Settings: NCIM 2718, 18 h
Reported MIC by item:
Report the figure in µM without appending any unit label.

CN1C(=O)C[C@@]2(C1=O)[C@@H](c1ccc(Cl)cc1)CN(C)[C@@]21C(=O)N(C)c2ccccc21    590
C#CCN1C(=O)[C@]2(c3ccccc31)N(C)C[C@H](c1ccccc1O)[C@]21CC(=O)N(C)C1=O    291

Could you now look at the following compound, please?
IN: Please indicate MIC recorded for "COc1ccc([C@H]2CN(C)[C@@]3(C(=O)N(C)c4ccccc43)[C@@]23CC(=O)N(C)C3=O)cc1"
OUT: 596

###

Reported MIC by item:
Tested on: Pseudomonas aeruginosa
Test: Antimicrobial activity against Pseudomonas aeruginosa NCIM 5029 after 18 hrs by broth microdilution assay
Assay type: functional
Details: NCIM 5029, 18 h
Report the figure in µM without appending any unit label.

CN1C(=O)C[C@@]2(C1=O)[C@@H](c1ccc(Cl)cc1)CN(C)[C@@]21C(=O)Nc2ccccc21    152
CN(C)[C@@H]1C(O)=C(C(N)=O)C(=O)[C@@]2(O)C(O)=C3C(=O)c4c(O)cccc4[C@@](C)(O)[C@H]3C[C@@H]12    4

Could you now look at the following compound, please?
IN: Please indicate MIC recorded for "Cc1ccc([C@H]2CN(C)[C@@]3(C(=O)Nc4ccccc43)[C@@]23CC(=O)N(C)C3=O)cc1"
OUT: 321

###

Test system: Bacillus subtilis
Assay: Antimicrobial activity against Bacillus subtilis NCIM 2718 after 18 hrs by broth microdilution assay
Assay type: functional
Conditions: NCIM 2718, 18 h
Reported MIC by item:
Report the figure in µM without appending any unit label.

IN: Please indicate MIC recorded for "CN1C(=O)C[C@@]2(C1=O)[C@@H](c1ccccc1O)CN(C)[C@@]21C(=O)Nc2ccccc21"
OUT: 639

IN: Please indicate MIC recorded for "CN1C(=O)C[C@@]2(C1=O)[C@@H](c1ccc(Cl)cc1)CN(C)[C@@]21C(=O)Nc2ccccc21"
OUT: 610

IN: Please indicate MIC recorded for "CN1C(=O)C[C@@]2(C1=O)[C@@H](c1ccccc1O)CN(C)[C@@]21C(=O)N(C)c2ccccc21"
OUT: 617

IN: Please indicate MIC recorded for "CC1(C)S[C@@H]2[C@H](NC(=O)[C@H](N)c3ccccc3)C(=O)N2[C@H]1C(=O)O"
OUT: 168

IN: Please indicate MIC recorded for "Cc1ccc([C@H]2CN(C)[C@@]3(C(=O)Nc4ccccc43)[C@@]23CC(=O)N(C)C3=O)cc1"
OUT: 642

IN: Please indicate MIC recorded for "COc1ccc([C@H]2CN(C)[C@@]3(C(=O)Nc4ccccc43)[C@@]23CC(=O)N(C)C3=O)cc1"
OUT: 617

IN: Please indicate MIC recorded for "CN(C)[C@@H]1C(O)=C(C(N)=O)C(=O)[C@@]2(O)C(O)=C3C(=O)c4c(O)cccc4[C@@](C)(O)[C@H]3C[C@@H]12"
OUT: 1

IN: Please indicate MIC recorded for "COc1ccc([C@H]2CN(C)[C@@]3(C(=O)N(Cc4ccccc4)c4ccccc43)[C@@]23CC(=O)N(C)C3=O)cc1"
OUT: 504

###

System: Staphylococcus aureus
Experiment: Antimicrobial activity against Staphylococcus aureus NCIM 5021 after 18 hrs by broth microdilution assay
Format: functional
Conditions: NCIM 5021, 18 h
Reported log10 MIC by item:
Log10 applied to MIC; unit prior to transform: µM.

Some solved cases for reference:
COc1ccc([C@H]2CN(C)[C@@]3(C(=O)N(C)c4ccccc43)[C@@]23CC(=O)N(C)C3=O)cc1    2.47
CN1C(=O)C[C@@]2(C1=O)[C@@H](c1ccc(Cl)cc1)CN(C)[C@@]21C(=O)N(C)c2ccccc21    2.47
CN(C)[C@@H]1C(O)=C(C(N)=O)C(=O)[C@@]2(O)C(O)=C3C(=O)c4c(O)cccc4[C@@](C)(O)[C@H]3C[C@@H]12 [TETRACYCLINE]    0.30
COc1ccc([C@H]2CN(C)[C@@]3(C(=O)Nc4ccccc43)[C@@]23CC(=O)N(C)C3=O)cc1    2.79

IN: Please indicate log10 MIC recorded for "CN1C(=O)C[C@@]2(C1=O)[C@@H](c1ccccc1O)CN(C)[C@@]21C(=O)Nc2ccccc21"
OUT: 2.81

IN: Please indicate log10 MIC recorded for "CN1C(=O)C[C@@]2(C1=O)[C@@H](c1ccc(Cl)cc1)CN(C)[C@@]21C(=O)Nc2ccccc21"
OUT: 2.48

IN: Please indicate log10 MIC recorded for "COc1ccc([C@H]2CN(C)[C@@]3(C(=O)N(Cc4ccccc4)c4ccccc43)[C@@]23CC(=O)N(C)C3=O)cc1"
OUT: 2.40

IN: Please indicate log10 MIC recorded for "CN1C(=O)C[C@@]2(C1=O)[C@@H](c1ccccc1O)CN(C)[C@@]21C(=O)N(C)c2ccccc21"
OUT: 2.79

IN: Please indicate log10 MIC recorded for CC1(C)S[C@@H]2[C@H](NC(=O)[C@H](N)c3ccccc3)C(=O)N2[C@H]1C(=O)O [AMPICILLIN]
OUT: 1.92

IN: Please indicate log10 MIC recorded for "C#CCN1C(=O)[C@]2(c3ccccc31)N(C)C[C@H](c1ccccc1O)[C@]21CC(=O)N(C)C1=O"
OUT: 2.46

IN: Please indicate log10 MIC recorded for "Cc1ccc([C@H]2CN(C)[C@@]3(C(=O)Nc4ccccc43)[C@@]23CC(=O)N(C)C3=O)cc1"
OUT: 2.51
